Protocol: The drug is tested on Z-018 corresponding to pig gut metagenome with ENA study accession number: PRJEB37062 and ENA sample accession number: ERS12561817 for biotransformation under anaerobic condition. The drug concentrations were measured over 9 timepoints collected between 0 and 24 hours of incubation by liquid-chromatography-coupled mass spectrometry (LC–MS); further: call rule not given here
Cond: 2 µM
Readout Kind: Bacterial Biotransformation

Please review the entries below; each comes with its answer.
* CC(=O)OCC(=O)[C@@]12N=C(C)O[C@@H]1C[C@H]1[C@@H]3CCC4=CC(=O)C=C[C@]4(C)[C@H]3[C@@H](O)C[C@@]12C | Compound metabolized
* Cc1ccc(-c2cc(C(F)(F)F)nn2-c2ccc(S(N)(=O)=O)cc2)cc1 | Compound NOT metabolized
* O=C(O)CCc1nc(-c2ccccc2)c(-c2ccccc2)o1 | Compound metabolized
* CC(C)OC(=O)C(C)(C)Oc1ccc(C(=O)c2ccc(Cl)cc2)cc1 [FENOFIBRATE] | Compound metabolized
* CC(C)(C)NC[C@H](O)COc1ccccc1C1CCCC1.CC(C)(C)NC[C@H](O)COc1ccccc1C1CCCC1.O=S(=O)(O)O [PENBUTOLOL SULFATE] | Compound metabolized

Exam item: Which value of Bacterial Biotransformation has been reported for CCN(CC)CC#CCOC(=O)C(O)(c1ccccc1)C1CCCCC1.Cl (stereo not drawn) [OXYBUTYNIN CHLORIDE] in the records?
Marked response: Compound metabolized

Exam item: Would you mind doing Br.CN(C)CCCC1(c2ccc(F)cc2)OCc2cc(C#N)ccc21 (stereo not drawn) [CITALOPRAM HYDROBROMIDE] as well?
Marked response: Compound NOT metabolized

Exam item: Would you mind doing COc1ccc2c3c1O[C@H]1C[C@@H](O)C=C[C@@]31CCN(C)C2 as well?
Marked response: Compound NOT metabolized

###

Protocol: The drug is tested on WLS-038 corresponding to human gut metagenome with ENA study accession number: PRJEB37062 and ENA sample accession number: ERS12561745 for biotransformation under anaerobic condition. The drug concentrations were measured over 9 timepoints collected between 0 and 24 hours of incubation by liquid-chromatography-coupled mass spectrometry (LC–MS)
Cond: 2 µM
Readout Kind: Bacterial Biotransformation

Please review the entries below; each comes with its answer.
- CCOC(=O)[C@H](CCc1ccccc1)N[C@H]1CCc2ccccc2N(CC(=O)O)C1=O: Compound metabolized
- COc1ccccc1N1CCN(CC(O)COc2cccc3ccccc23)CC1 (stereo unspecified): Compound NOT metabolized
- CC(C)N(CCC(C(N)=O)(c1ccccc1)c1ccccn1)C(C)C.O=P(O)(O)O (stereo unspecified) [DISOPYRAMIDE PHOSPHATE]: Compound NOT metabolized
- CCN(CC)CC#CCOC(=O)C(O)(c1ccccc1)C1CCCCC1.Cl (stereo unspecified) [OXYBUTYNIN CHLORIDE]: Compound metabolized

Exam item: Which value of Bacterial Biotransformation has been reported for c1ccc([C@H]2CN3CCSC3=N2)cc1 in the records?
Marked response: Compound metabolized

Exam item: Would you mind doing CC(C)c1nc(CN(C)C(=O)N[C@H](C(=O)N[C@@H](Cc2ccccc2)C[C@H](O)[C@H](Cc2ccccc2)NC(=O)OCc2cncs2)C(C)C)cs1 as well?
Marked response: Compound metabolized

###

Protocol: The drug is tested on WLS-098 corresponding to human gut metagenome with ENA study accession number: PRJEB37062 and ENA sample accession number: ERS12561754 for biotransformation under anaerobic condition. The drug concentrations were measured over 9 timepoints collected between 0 and 24 hours of incubation by liquid-chromatography-coupled mass spectrometry (LC–MS)
Cond: 2 µM
Readout Kind: Bacterial Biotransformation

Please review the entries below; each comes with its answer.
• COc1cc2nc(N3CCN(C(=O)c4ccco4)CC3)nc(N)c2cc1OC [PRAZOSIN] = Compound metabolized
• Cc1nc(-c2ccc(OCC(C)C)c(C#N)c2)sc1C(=O)O [FEBUXOSTAT] = Compound metabolized
• OCCN1CCN(CCCN2c3ccccc3Sc3ccc(C(F)(F)F)cc32)CC1 [FLUPHENAZINE] = Compound NOT metabolized
• CCOc1ccc(NC(C)=O)cc1 [PHENACETIN] = Compound NOT metabolized

Exam item: Which value of Bacterial Biotransformation has been reported for CCC1(c2ccc(N)cc2)CCC(=O)NC1=O (stereo not given) [AMINOGLUTETHIMIDE] in the records?
Marked response: Compound NOT metabolized

###

Protocol: The drug is tested on Z-020 corresponding to rabbit gut metagenome with ENA study accession number: PRJEB37062 and ENA sample accession number: ERS12561819 for biotransformation under anaerobic condition. The drug concentrations were measured over 9 timepoints collected between 0 and 24 hours of incubation by liquid-chromatography-coupled mass spectrometry (LC–MS)
Cond: 2 µM
Where a SMILES comes first, the peptide text is derived from it. [ ]: non-standard residue; d: D form. pGlu = O=C1CC[C@@H](C(=O)O)N1; Thz = O=C(O)[C@@H]1CSCN1
Readout Kind: Bacterial Biotransformation

Please review the entries below; each comes with its answer.
• O=C1NCC2(CCN(CCc3ccccc3)CC2)O1 [FENSPIRIDE] = Compound NOT metabolized
• O=C1CC[C@@H](C(=O)N2CSC[C@H]2C(=O)O)N1 [PIDOTIMOD] ([pGlu]-[Thz]-OH) = Compound NOT metabolized
• CC(C)NCC(O)c1ccc(NS(C)(=O)=O)cc1 (stereo not drawn) [SOTALOL] = Compound NOT metabolized
• O=c1n(CCCN2CCN(c3cccc(Cl)c3)CC2)nc2ccccn12 [TRAZODONE] = Compound NOT metabolized
• Nc1c2c(nc3ccccc13)CCCC2 [TACRINE] = Compound NOT metabolized

Exam item: Which value of Bacterial Biotransformation has been reported for CN1C(=O)CCS(=O)(=O)C1c1ccc(Cl)cc1 (stereo not drawn) [CHLORMEZANONE] in the records?
Marked response: Compound NOT metabolized

Exam item: Would you mind doing CNS(=O)(=O)Cc1ccc2[nH]cc(CCN(C)C)c2c1.O=C(O)CCC(=O)O [SUMATRIPTAN SUCCINATE] as well?
Marked response: Compound NOT metabolized

Exam item: Would you mind doing CCN(CC)C(C)CN1c2ccccc2Sc2ccccc21 (stereo not drawn) [ETHOPROPAZINE] as well?
Marked response: Compound NOT metabolized

Exam item: Would you mind doing Cc1cn([C@H]2C[C@H](N=[N+]=[N-])[C@@H](CO)O2)c(=O)[nH]c1=O [ZIDOVUDINE] as well?
Marked response: Compound metabolized

Exam item: Would you mind doing NS(=O)(=O)c1cc2c(cc1Cl)N=C(CSCc1ccccc1)NS2(=O)=O [BENZTHIAZIDE] as well?
Marked response: Compound NOT metabolized

Exam item: Would you mind doing Cc1nc2n(c(=O)c1CCN1CCC(c3noc4cc(F)ccc34)CC1)CCCC2O (stereo not drawn) [PALIPERIDONE] as well?
Marked response: Compound NOT metabolized

Exam item: Would you mind doing CC(C)OC(=O)C(C)(C)Oc1ccc(C(=O)c2ccc(Cl)cc2)cc1 [FENOFIBRATE] as well?
Marked response: Compound metabolized

Exam item: Would you mind doing CN(C)CCc1c[nH]c2ccc(Cn3cncn3)cc12.O=C(O)c1ccccc1 [RIZATRIPTAN BENZOATE] as well?
Marked response: Compound NOT metabolized

###

Protocol: The drug is tested on WLS-170 corresponding to human gut metagenome with ENA study accession number: PRJEB37062 and ENA sample accession number: ERS12561762 for biotransformation under anaerobic condition. The drug concentrations were measured over 9 timepoints collected between 0 and 24 hours of incubation by liquid-chromatography-coupled mass spectrometry (LC–MS)
Cond: 2 µM
Readout Kind: Bacterial Biotransformation

Please review the entries below; each comes with its answer.
- CCN(CC)CCOCCOC(=O)C1(c2ccccc2)CCCC1.O=C(O)CC(O)(CC(=O)O)C(=O)O [CARBETAPENTANE CITRATE]: Compound metabolized
- CNC(=C[N+](=O)[O-])NCCSCc1ccc(CN(C)C)o1: Compound NOT metabolized
- CN1CCN(C2=Nc3cc(Cl)ccc3Nc3ccccc32)CC1: Compound metabolized
- CS(=O)(=O)O.OC(CCN1CCCCC1)(c1ccccc1)c1ccccc1 [PRIDINOL METHANESULFONATE]: Compound metabolized
- O=c1[nH]c2ccccc2n1C1CCN(CCCC(c2ccc(F)cc2)c2ccc(F)cc2)CC1 [PIMOZIDE]: Compound metabolized

Exam item: Which value of Bacterial Biotransformation has been reported for CCCCC(=O)N(Cc1ccc(-c2ccccc2-c2nnn[nH]2)cc1)[C@H](C(=O)O)C(C)C in the records?
Marked response: Compound metabolized

Exam item: Would you mind doing CCc1nc(N)nc(N)c1-c1ccc(Cl)cc1 as well?
Marked response: Compound NOT metabolized

Exam item: Would you mind doing C[C@@H](CO)NC(=O)[C@@H]1C=C2c3cccc4[nH]cc(c34)C[C@H]2N(C)C1.O=C(O)/C=C\C(=O)O [ERGONOVINE MALEATE] as well?
Marked response: Compound metabolized

Exam item: Would you mind doing CCN(CC)CCNC(C(=O)OCCC(C)C)c1ccccc1.Cl.Cl (configuration not stated) as well?
Marked response: Compound metabolized

The reported numbers originate from ChEMBL document CHEMBL5724914.
